Can you tell me IC50 for the items I'm about to list?
system: Prostaglandin G/H synthase 1 (Homo sapiens)
Sequence (P23219 whole entry): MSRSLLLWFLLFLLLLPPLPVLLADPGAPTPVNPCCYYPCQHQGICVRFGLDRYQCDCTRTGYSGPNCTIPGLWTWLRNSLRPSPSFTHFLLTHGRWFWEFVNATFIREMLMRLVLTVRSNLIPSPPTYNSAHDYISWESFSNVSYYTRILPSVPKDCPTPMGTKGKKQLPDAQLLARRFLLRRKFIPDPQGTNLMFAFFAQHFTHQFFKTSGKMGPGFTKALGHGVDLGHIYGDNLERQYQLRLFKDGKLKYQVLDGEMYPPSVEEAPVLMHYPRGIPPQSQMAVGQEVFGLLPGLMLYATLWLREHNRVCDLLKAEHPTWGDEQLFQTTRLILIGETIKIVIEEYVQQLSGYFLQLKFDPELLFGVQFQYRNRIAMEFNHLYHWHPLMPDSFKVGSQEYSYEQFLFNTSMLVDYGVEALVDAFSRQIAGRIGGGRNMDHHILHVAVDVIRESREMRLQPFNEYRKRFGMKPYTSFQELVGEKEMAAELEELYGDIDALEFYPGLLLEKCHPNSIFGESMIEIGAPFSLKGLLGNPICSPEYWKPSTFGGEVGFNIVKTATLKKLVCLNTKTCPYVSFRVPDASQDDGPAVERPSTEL
method: Inhibition of Prostaglandin G/H synthase 1 activity in U937 microsomal assay
Assay type: microsomes, Microsome

The value of IC50 measured for the compound CS(=O)(=O)Nc1cc2c(cc1Sc1ncccc1Cl)C(=O)CC2 turned out to be 6.1 µM

The value of IC50 measured for the compound CSc1csc(Sc2cc3c(cc2NS(C)(=O)=O)COC3=O)n1 turned out to be 9.3 µM

The value of IC50 measured for the compound Cc1csc(Sc2cc3c(cc2NS(C)(=O)=O)COC3=O)n1 turned out to be 0.35 µM

The value of IC50 measured for the compound CS(=O)(=O)Nc1cc2c(cc1Sc1nccs1)C(=O)OC2 turned out to be 1.3 µM

The value of IC50 measured for the compound CS(=O)(=O)Nc1cc2c(cc1Sc1ccc(F)cc1F)C(=O)CC2 turned out to be 1.6 µM

The value of IC50 measured for the compound Cc1cnc(Sc2cc3c(cc2NS(C)(=O)=O)CCC3=O)s1 turned out to be > 100 µM

The value of IC50 measured for the compound Cc1csc(Sc2cc3c(cc2NS(C)(=O)=O)CCC3=O)n1 turned out to be 0.62 µM

The value of IC50 measured for the compound CS(=O)(=O)Nc1cc2c(cc1Sc1ccccn1)C(=O)CC2 turned out to be > 30 µM

The value of IC50 measured for the compound CS(=O)(=O)Nc1cc2c(cc1Sc1nccs1)C(=O)CC2 turned out to be 13 µM

The value of IC50 measured for the compound CCc1csc(Sc2cc3c(cc2NS(C)(=O)=O)CCC3=O)n1 turned out to be 14 µM

The value of IC50 measured for the compound Cc1ccc(Sc2cc3c(cc2NS(C)(=O)=O)CCC3=O)nc1 turned out to be > 100 µM

The value of IC50 measured for the compound CCc1csc(Sc2cc3c(cc2NS(C)(=O)=O)COC3=O)n1 turned out to be 6.3 µM

The value of IC50 measured for the compound C=Cc1csc(Sc2cc3c(cc2NS(C)(=O)=O)COC3=O)n1 turned out to be 12 µM

The value of IC50 measured for the compound CS(=O)(=O)Nc1cc2c(cc1Sc1ncc(Cl)cc1Cl)C(=O)CC2 turned out to be 4.9 µM

The value of IC50 measured for the compound Cc1nc(Sc2cc3c(cc2NS(C)(=O)=O)CCC3=O)sc1C turned out to be > 100 µM
